biological target: PICK1, Q9NRD5; test: holdup assay; parameters: key: below the threshold = too weak to quantify, mostly under pKd 3.1 to 4; conditions: plain residues with an end cap or a label only (N-terminal biotin on a linker: ado-ado)
Sequence (Q9NRD5 17-115): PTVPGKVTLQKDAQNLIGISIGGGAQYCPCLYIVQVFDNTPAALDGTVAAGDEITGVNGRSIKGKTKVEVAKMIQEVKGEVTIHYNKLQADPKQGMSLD
measurementLabel: pKd

ARESQKVSHV [FAM110B, Q8TC76] | below the threshold
AEASVACSLC [PTGIR, P43119] | below the threshold
NNNVVKVDSV [MTNR1A, P48039] | 4.06
RFQQRMQTHV [KIRREL1, Q96J84] | below the threshold
NTLNRKTTPV [CACNG8, Q8WXS5] | 4.17
SLNANEVEWF [RNF130, Q86XS8] | below the threshold
TNSRHGETTV [FZD2, Q14332] | below the threshold

Continue with the next binder.
**Query** Need pKd, item LAHVKHKEQI [AQP3, Q92482]
**Result** 3.98
